Tested on: L1210 cells
Test: animal or person
Assay type: in vivo, CDF1 mice
Conditions: Mus musculus, L1210, ip, 1080 h, read-out: Antitumor Activity (T/C, prolongation rate of survival day), 5 mg/kg/day i.p., once daily for 10 days
In this section, each of the compounds is paired with its reported response vs control in vivo at 5 mg/kg.

- compound: "COc1cccc2c1C(=O)c1c(O)c3c(c(O)c1C2=O)C[C@@](O)(C(=O)CO)C[C@@H]3O[C@H]1C[C@H](N)[C@H](OC(C)OCCCCCC(C)C)[C@H](C)O1 (single isomer, unassigned)"
  response vs control in vivo at 5 mg/kg (%): 125
- compound: "COc1cccc2c1C(=O)c1c(O)c3c(c(O)c1C2=O)C[C@@](O)(C(=O)COC(C)=O)C[C@@H]3O[C@H]1C[C@H](N)[C@H](OC2CCCCO2)[C@H](C)O1 (single isomer, unassigned)"
  response vs control in vivo at 5 mg/kg (%): 225
- compound: "COC(=O)C1CCCC(O[C@@H]2[C@H](C)O[C@@H](O[C@H]3C[C@](O)(C(C)=O)Cc4c(O)c5c(c(O)c43)C(=O)c3c(OC)cccc3C5=O)C[C@@H]2N)O1 (stereo partly shown)"
  response vs control in vivo at 5 mg/kg (%): 131
- compound: "COc1cccc2c1C(=O)c1c(O)c3c(c(O)c1C2=O)C[C@@](O)(C(=O)CO)C[C@@H]3O[C@H]1C[C@H](N)[C@H](OC2CCCC(COC(C)=O)O2)[C@H](C)O1 (stereo partly shown)"
  response vs control in vivo at 5 mg/kg (%): 141

----------
Test system: L1210 cells
Test: animal or person
Type: in vivo, CDF1 mice
Conditions: 5 mg/kg/day i.p., once daily for 10 days
Protocol: D. Representative compounds of general formula I" were tested against experimental animal tumors as follows: […] CDF1 mice were administered intraperitoneally (i.p.) with 1×10^5 cells/mouse of L1210 cells. After 24 hours had elapsed since inoculation, the mice were administered the test compounds intraperitoneally once daily for 10 consecutive days and observed for a 45 day period. […]
In this section, each of the compounds is paired with its reported Antitumor Activity (T/C, prolongation rate of survival day).
endpoint.name: Antitumor Activity (T/C, prolongation rate of survival day)

- compound: "COc1cccc2c1C(=O)c1c(O)c3c(c(O)c1C2=O)C[C@@](O)(C(C)=O)C[C@@H]3O[C@H]1C[C@H](N)[C@H](OC(C)OCC(C)C)[C@H](C)O1 (single isomer, unassigned) [Example 17-a, 4'-O-(1-isobutyloxyethyl) daunomycin a]"
  target.or.test.system: "L1210 cells"
  value.observed: "156%"
- compound: "CCOC(C)O[C@@H]1[C@H](C)O[C@@H](O[C@H]2C[C@](O)(C(C)=O)Cc3c(O)c4c(c(O)c32)C(=O)c2c(OC)cccc2C4=O)C[C@@H]1N (single isomer, unassigned) [Example 16-b, 4'-O-(1-ethyloxyethyl) daunomycin b]"
  target.or.test.system: "L1210 cells"
  value.observed: "247%"
- compound: "COc1cccc2c1C(=O)c1c(O)c3c(c(O)c1C2=O)C[C@@](O)(C(=O)CO)C[C@@H]3O[C@H]1C[C@H](N)[C@H](OC2CCCO2)[C@H](C)O1 (stereo partly shown) [Example 4, 4'-O-tetrahydrofuranyl adriamycin]"
  target.or.test.system: "L1210 cells"
  value.observed: "314%"
- compound: "CCOC(C)O[C@@H]1[C@H](C)O[C@@H](O[C@H]2C[C@](O)(C(=O)CO)Cc3c(O)c4c(c(O)c32)C(=O)c2c(OC)cccc2C4=O)C[C@@H]1N (single isomer, unassigned) [Example 7-b, 4'-O-(1-ethyloxyethyl) adriamycin b]"
  target.or.test.system: "L1210 cells"
  value.observed: "211%"
- compound: "COc1cccc2c1C(=O)c1c(O)c3c(c(O)c1C2=O)C[C@@](O)(C(=O)CO)C[C@@H]3O[C@H]1C[C@H](N)[C@H](OC(C)OCC(C)C)[C@H](C)O1 (single isomer, unassigned) [Example 9-a, 4'-O-(1-isobutyloxyethyl) adriamycin a]"
  target.or.test.system: "L1210 cells"
  value.observed: "257%"
- compound: "COc1cccc2c1C(=O)c1c(O)c3c(c(O)c1C2=O)C[C@@](O)(C(C)=O)C[C@@H]3O[C@H]1C[C@H](N)[C@H](OC2CCCC(OC)O2)[C@H](C)O1 (single isomer, unassigned) [Example 14-b]"
  target.or.test.system: "L1210 cells"
  value.observed: "463%"
- compound: "COc1cccc2c1C(=O)c1c(O)c3c(c(O)c1C2=O)C[C@@](O)(C(C)=O)C[C@@H]3O[C@H]1C[C@H](N)[C@H](OC2CCCC(OC)O2)[C@H](C)O1 (single isomer, unassigned) [Example 14-a]"
  target.or.test.system: "L1210 cells"
  value.observed: "232%"
